# Target Desc: PTPRD D1 phosphatase (SEQ ID NO: 1) (Homo sapiens)
# Construct: His6 (N); made in house; host or cells: E. coli (vector optimized for E. coli codon use)
# Method Notes: Orthophosphate release assay (malachite green/molybdate) with phosphopeptide substrates
# Format: biochemical
# Conditions Used: pY15 CDK5 phosphopeptide; flavonoid 10^−4 M (FIG. 7); vs vehicle
Readout Kind: PTPRD's activity in dephosphorylating CDK5 phosphopeptide (positive allosteric modulation)

In [3]: df
Out[3]:
                         chemical_structure       result
0   O=c1c(O)c(-c2ccc(O)c(O)c2)oc2cc(O)ccc12  trend-level
1  O=c1c(O)c(-c2cc(O)c(O)c(O)c2)oc2cc(O)cc(O)c12  trend-level
2  O=c1c(O)c(-c2ccc(O)cc2O)oc2cc(O)cc(O)c12  trend-level

###

# Target Desc: human PTPRD phosphatase (Homo sapiens)
# Construct: His6 (N); made in house; host or cells: E. coli (vector optimized for E. coli codon use)
# Sequence (P23468 with tags, fused parts or gaps): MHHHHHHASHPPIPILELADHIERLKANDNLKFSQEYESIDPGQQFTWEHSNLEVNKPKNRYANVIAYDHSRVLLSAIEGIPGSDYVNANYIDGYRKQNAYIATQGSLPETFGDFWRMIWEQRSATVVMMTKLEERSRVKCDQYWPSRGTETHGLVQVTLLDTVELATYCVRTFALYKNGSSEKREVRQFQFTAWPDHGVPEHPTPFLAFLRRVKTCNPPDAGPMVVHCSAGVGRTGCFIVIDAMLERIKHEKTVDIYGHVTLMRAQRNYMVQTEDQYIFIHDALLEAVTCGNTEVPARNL
# Method Notes: pNPP dephosphorylation to p-nitrophenolate (405 nm)
# Format: biochemical
# Conditions Used: FIG. 4; peptide 4×10^−4 M, pNPP 1.8×10^−5M
Readout Kind: competition for PTPRD phosphatase's hydrolysis of pNPP

                                  substance    result
0  QLVRGEPNVS-pY-ICSRYYRAPE [GSK3 phosphopeptide]  competes
1  YEKLEKIGEGT-pY-GTVFKAKN [CDK5 phosphopeptide]  competes
2  QLVRGEPNVSYICSRYYRAPE (QLVRGEPNVSSYICSRYYRAPE) [dephospho GSK3β, GSK3α peptide, GSK3β/α wildtype dephosphopeptide]  inactive
3  YEKLEKIGEGTYGTVFKAKN [dephospho CDK5 peptide, CDK5 wildtype dephosphopeptide]  inactive

###

# Target Desc: PTPRD D1 phosphatase (SEQ ID NO: 1) (Homo sapiens, UniProt P23468)
# Construct: His6 (N); made in house; host or cells: E. coli (vector optimized for E. coli codon use)
# Method Notes: Orthophosphate release assay (malachite green/molybdate) with phosphopeptide substrates
# Format: biochemical
# Conditions Used: pYGSK3 phosphopeptide; flavonoid 10^−4 M (FIG. 8); vs vehicle
Readout Kind: PTPRD's activity in dephosphorylating GSK3 phosphopeptide (positive allosteric modulation)

                                   compound       result
0  O=c1c(O)c(-c2ccc(O)cc2O)oc2cc(O)cc(O)c12 [morin]  significant
1  O=c1c(O)c(-c2cc(O)c(O)c(O)c2)oc2cc(O)cc(O)c12 [myricetin]  significant
2  O=c1c(O)c(-c2ccc(O)c(O)c2)oc2cc(O)ccc12 [fisetin]  significant
